ASSAYED TARGET: purified HLA-DR molecule DRB1*0301 (human)
TEST METHOD NOTES: competition with 125I-labelled peptide for purified HLA
For each entry below, report its IC50 value.
One number for each entry, in nM.

Reference set, count: 5
RGILEDEQMYQKCCN (modifications not checked) [… (Flu.PB1.683)] :: 43
MVAYMLERELVRKTR (modifications not checked) [… (Flu.PB2.205)] :: 878
PVHFRNQVKIRRRVD (modifications not checked) [… (Flu.PB2.135)] :: 458
QRGILEDEQMYQKCC (modifications not checked) [… (Flu.PB1.682)] :: 34
KYPITADKRIMEMIP (modifications not checked) [… (Flu.PB2.57)] :: 48

Please go through the list and note IC50 for each binder.
1. GGEVRNDDVDQSLII (modifications not checked) [… (Flu.PB2.250)]
2. LRNLMSQSRTREILT (modifications not checked) [LRNLMS1SRTREILT (Flu.PB2.10)]

Response line:
[347, 978]
